The origin of these recorded values is the supplement of paper PMC9170038.

Test system: MS2 coat protein
Assay: apparent KD of MS2 coat protein; higher = weaker reporter binding
Details: Eterna round: R107; input ligand: arginine 13.2 mM
Reported apparent KD of MS2 coat protein values for the following sequences.
Property label: apparent KD of MS2 coat protein (µM)

>>> measured_value("UGGUAUGUAGGAAGGAGCGCAUACUUCACAUGAGGAUCACCCAUGUCGAGACGUGAGUCAGUGCAGGUAGGUCGCCUAGUUAUGA [Same State - Arginine B (Freestyle 22)]")
0.0358
>>> measured_value("CCGGGCCCGGGCGACCGGGCCCGGACUGAAGGAGCGGGAAUAAACCCAGGUAGGUCGCAGAGAUCCACAUGAGGAUCACCCAUGU [!0.V]")
0.0317
>>> measured_value("GUAAUUUAUUGAAGGAGCGUCGAAAAUGGGUAAACAUGAGGAUCACCCAUGUAAAGGGAACGACAGGUAGGUCGCAAUAGGUUAC [AstromonsSSArgB#29]")
0.103
